- TARGET_OR_TEST_SYSTEM: Cathepsin D (Homo sapiens)
- Sequence (P07339 65-162 limits assumed): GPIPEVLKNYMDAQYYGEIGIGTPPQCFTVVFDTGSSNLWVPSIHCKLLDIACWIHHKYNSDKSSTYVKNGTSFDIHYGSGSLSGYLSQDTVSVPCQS
- Sequence (P07339 169-412 limits assumed): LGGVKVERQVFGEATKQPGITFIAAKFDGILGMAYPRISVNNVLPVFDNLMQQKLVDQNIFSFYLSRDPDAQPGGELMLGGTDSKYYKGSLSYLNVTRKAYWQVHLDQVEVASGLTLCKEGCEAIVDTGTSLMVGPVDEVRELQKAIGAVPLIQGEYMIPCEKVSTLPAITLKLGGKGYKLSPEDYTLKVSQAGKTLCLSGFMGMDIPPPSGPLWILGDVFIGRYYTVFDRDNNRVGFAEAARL
READOUT_NAME: IC50

Exercise: Return IC50 measured with Cathepsin D (Homo sapiens) given this compound: `COc1cccc2[nH]c(C(=O)N[C@@H](CC(C)C)C(=O)N[C@@H](C[C@@H]3CCNC3=O)C(=O)CO)cc12`
Key: > 10 µM

----------
- TARGET_OR_TEST_SYSTEM: Prothrombin (Homo sapiens)
pIC50: −log10 of the molar value.
READOUT_NAME: pIC50

Exercise: Recorded pIC50 for COc1cccc2[nH]c(C(=O)N[C@@H](CC(C)C)C(=O)N[C@@H](C[C@@H]3CCNC3=O)C(=O)CO)cc12 [PF-00835231] with Prothrombin (Homo sapiens), please?
Key: < 5.00
